I'd appreciate it if you could supply log10 of IC50 values for the items below.
molecular target: ZIKV-induced caspase 3/7 activity in human astrocytes; assay: Caspase 3/7 activity assay, ZIKV-infected human astrocytes; type: cell-based; details: ZIKV-infected human astrocytes; read-out: Caspase 3 (IC50, uM) Astrocyte
Transform log10 | Measure IC50 | Unit µM

Kindly indicate its recorded log10 of IC50. Item: CN1CC(=O)NC1=NC(=O)Nc1cccc(Cl)c1
0.96

Kindly indicate its recorded log10 of IC50. Item: CN(C)c1ccc(N=NS(=O)(=O)[O-])cc1.[Na+]
1.55

Kindly indicate its recorded log10 of IC50. Item: CC(C)(C)COc1ccc(-n2cc(C(=O)O)cn2)cc1C#N
0.95

Kindly indicate its recorded log10 of IC50. Item: Cc1cccc(/C=C/c2ccccc2)n1
1.09

Kindly indicate its recorded log10 of IC50. Item: O=C1NC(=O)/C(=C/c2ccc(-c3ccc(F)cc3O)o2)S1
0.24
